This collection of values is drawn from patent EP1210346B1.

Test system: P-388 (suspension culture of a lymphoid neoplasm from DBA/2 mouse)
measurement-notes: Antitumour screening, growth inhibition of P-388 cells (adapted Bergeron method)
Format: cell-based
study-conditions: P388, 72 h, three days of incubation at 37°C, approximate IC50, duplicate
observable: IC50 (nM)
Entry rule: numbers only, all in nM.

Asked: What does the data say about its IC50? Entry: COC1=C(C)C(=O)C2=C(C1=O)C1C3CC4=C(C(=O)C(OC)=C(C)C4=O)C(COC(C)=O)N3C(O)C(C2)N1C (stereo not shown) [Jorumycin]
Given back: 20
